Test: Phase I dose escalation and dose expansion study, observed PK in cancer patients
Format: in vivo
Conditions: human, plasma, multiple oral dose 20 mg, geometric mean, read-out: Observed AUCss
readout_name: AUC (µM·h)
Entry rule: numbers only, all in µM·h.

AUC measured on CCN1C(=O)N(c2c(F)c(OC)cc(OC)c2F)Cc2cnc3[nH]c(CN4CCOCC4)cc3c21 = 4.18

----------
Experiment: clinical
Settings: human, plasma, oral, 13.5 mg
readout_name: Cmax (nM)
Entry rule: numbers only, all in nM.

Cmax measured on CCN1C(=O)N(c2c(F)c(OC)cc(OC)c2F)Cc2cnc3[nH]c(CN4CCOCC4)cc3c21 = 176

----------
Experiment: clinical
Settings: human, plasma, oral, 4.5 mg
readout_name: AUC0-t (µM·h)
Entry rule: numbers only, all in µM·h.

AUC0-t measured on CCN1C(=O)N(c2c(F)c(OC)cc(OC)c2F)Cc2cnc3[nH]c(CN4CCOCC4)cc3c21 = 0.674

----------
Assay: clinical
Conditions: human, plasma, oral, 4.5 mg
readout_name: AUC(0-inf) (µM·h)
Entry rule: numbers only, all in µM·h.

AUC(0-inf) measured on CCN1C(=O)N(c2c(F)c(OC)cc(OC)c2F)Cc2cnc3[nH]c(CN4CCOCC4)cc3c21 = 0.712

----------
Test: clinical
Details: human, plasma, po, 4.5 mg
readout_name: Cmax (nM)
Entry rule: numbers only, all in nM.

Cmax measured on CCN1C(=O)N(c2c(F)c(OC)cc(OC)c2F)Cc2cnc3[nH]c(CN4CCOCC4)cc3c21 [Pemigatinib] = 60.1

----------
Test: Phase I dose escalation and dose expansion study, observed PK in cancer patients
Type: in vivo
Details: human, plasma, multiple oral dose 6 mg, geometric mean, read-out: Observed AUCss
Method: The pemigatinib PBPK model was developed from healthy volunteer was used to describe cancer patients PK data from phase I dose escalation and dose expansion study (6-20 mg). The model was used to predict pemigatinib plasma concentration-time curves in cancer patients after multiple oral dose of 6, 9, 13.5 and 20 mg pemigatinib because only one patient was dosed for 1, 2 and 4 mg, respectively.
readout_name: AUC (µM·h)
Entry rule: numbers only, all in µM·h.

AUC measured on CCN1C(=O)N(c2c(F)c(OC)cc(OC)c2F)Cc2cnc3[nH]c(CN4CCOCC4)cc3c21 = 1.11

----------
Experiment: clinical
Settings: human, plasma, oral, 13.5 mg
readout_name: AUC(0-inf) (µM·h)
Entry rule: numbers only, all in µM·h.

AUC(0-inf) measured on CCN1C(=O)N(c2c(F)c(OC)cc(OC)c2F)Cc2cnc3[nH]c(CN4CCOCC4)cc3c21 = 2.04

----------
Assay: clinical
Conditions: human, plasma, oral, 13.5 mg
readout_name: half-life
Note: a bare number is incomplete; add the unit.

half-life measured on CCN1C(=O)N(c2c(F)c(OC)cc(OC)c2F)Cc2cnc3[nH]c(CN4CCOCC4)cc3c21 = 12.7 h
